- system: Fc-fusion protein of human PSMA (hPSMA-Fc) (Homo sapiens)
- Construct: purchased Acro Biosystems PSA-H5264
- protocol.summary: Surface plasmon resonance assay (Biacore T200, single cycle kinetic)
- Type: binding
- measurement.conditions: SPR, hPSMA-Fc, single cycle kinetic, 25° C.; category; read-out: pKD CAT (converted)
Numbered stars: 1 amine (or outer) side, 2 acyl side, 3 side chain; on linkers, the order of the positions; unused ones are H or OH. Bridge positions count the residues as written; N and C are the ends. Square brackets hold non-standard residues; d marks the D form. Peptide text beside a SMILES is read from it. * marks the point of attachment. DOTA = O=C(O)CN1CCN(CC(=O)O)CCN(CC(=O)*)CCN(CC(=O)O)CC1; 3Pal = N[C@@H](Cc1cccnc1)C(=O)O; X1 = O=C(CC1CCN([*:1])CC1)[*:2]; Cit = NC(=O)NCCC[C@H](N)C(=O)O; Tle = CC(C)(C)[C@H](N)C(=O)O; Aib = CC(C)(N)C(=O)O
parameter.measured: Kd

Which Kd reading was recorded for the compound C[C@@H](O)[C@H](NC(=O)[C@@H](NC(=O)[C@@H]1CSSC[C@H](NC(=O)[C@H](Cc2cccnc2)NC(=O)C(C)(C)NC(=O)[C@@H](NC(=O)CC2CCN(C(=O)CN3CCN(CC(=O)O)CCN(CC(=O)O)CCN(CC(=O)O)CC3)CC2)[C@@H](C)O)C(=O)N[C@@H](CCCCN)C(=O)N[C@@H](CCCNC(N)=O)C(=O)NC(C)(C)C(=O)N[C@@H](CC(N)=O)C(=O)N1)C(C)(C)C)C(N)=O [PSM-0255] ({DOTA}-[X1]T[Aib][3Pal]CK[Cit][Aib]NC[Tle]T-NH2; disulfide 5-10) ?
> 501 nM

====

- System: PC3-PIP tumor model
- Design: species or system mice
- measurement.conditions: mouse, in vivo
Bridge positions count the residues as written; N and C are the ends. Square brackets hold non-standard residues; d marks the D form. Peptide text beside a SMILES is read from it. * marks the point of attachment. TtdsdLys(DOTA)NH2 = NC(=O)[C@@H](CCCCNC(=O)CN1CCN(CC(=O)O)CCN(CC(=O)O)CCN(CC(=O)O)CC1)NC(=O)CCC(=O)NCCCOCCOCCOCCCN*; Tle = CC(C)(C)[C@H](N)C(=O)O; Aib = CC(C)(N)C(=O)O
parameter.measured: Tumor AUC (% ID/g*h)
Give just the numeric value; % ID/g*h need not be written.

I'm curious: which Tumor AUC was measured for CC(=O)N[C@H](C(=O)NC(C)(C)C(=O)N[C@@H](Cc1ccccc1)C(=O)N[C@H]1CSSC[C@@H](C(=O)N[C@H](C(=O)N[C@H](C(=O)NCCCOCCOCCOCCCNC(=O)CCC(=O)N[C@H](CCCCNC(=O)CN2CCN(CC(=O)O)CCN(CC(=O)O)CCN(CC(=O)O)CC2)C(N)=O)[C@@H](C)O)C(C)(C)C)NC(=O)[C@H](CC(N)=O)NC(=O)C(C)(C)NC(=O)[C@H](CCCNC(=N)N)NC(=O)[C@H](CCCCN)NC1=O)[C@@H](C)O [PSM-0285] (Ac-T[Aib]FCKR[Aib]NC[Tle]T-{TtdsdLys(DOTA)NH2}; disulfide 4-9) tested on PC3-PIP tumor model?
210

====

# reported Kd; entries follow
- system: Fc-fusion protein of human PSMA (hPSMA-Fc) (Homo sapiens, UniProt Q04609)
- Construct: purchased Acro Biosystems PSA-H5264
- Sequence (Q04609 44-750 limits assumed): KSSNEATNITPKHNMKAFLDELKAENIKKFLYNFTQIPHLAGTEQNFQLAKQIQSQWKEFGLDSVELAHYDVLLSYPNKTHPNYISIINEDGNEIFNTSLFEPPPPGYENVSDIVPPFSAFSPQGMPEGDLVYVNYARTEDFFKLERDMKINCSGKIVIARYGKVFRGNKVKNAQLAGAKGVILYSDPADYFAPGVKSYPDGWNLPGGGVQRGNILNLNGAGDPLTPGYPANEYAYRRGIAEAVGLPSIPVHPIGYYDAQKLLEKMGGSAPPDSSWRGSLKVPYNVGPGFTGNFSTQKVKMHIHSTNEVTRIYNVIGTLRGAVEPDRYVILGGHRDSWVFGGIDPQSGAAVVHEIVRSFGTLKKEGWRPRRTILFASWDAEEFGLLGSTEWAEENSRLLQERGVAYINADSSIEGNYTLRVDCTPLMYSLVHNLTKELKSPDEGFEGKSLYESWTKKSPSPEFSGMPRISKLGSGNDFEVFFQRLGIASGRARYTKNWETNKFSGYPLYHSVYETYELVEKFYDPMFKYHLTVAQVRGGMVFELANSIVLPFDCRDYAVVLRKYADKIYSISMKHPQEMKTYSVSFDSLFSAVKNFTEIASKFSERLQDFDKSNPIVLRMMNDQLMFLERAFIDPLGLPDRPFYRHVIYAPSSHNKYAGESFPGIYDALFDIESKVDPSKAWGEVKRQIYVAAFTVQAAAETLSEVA
- protocol.summary: Surface plasmon resonance assay (Biacore T200, single cycle kinetic)
- Format: binding
- measurement.conditions: pKD category for PSMA SPR activity assay, hPSMA-Fc, 25° C.; read-out: pKD CAT (converted)
Bridge positions count the residues as written; N and C are the ends. Square brackets hold non-standard residues; d marks the D form. Peptide text beside a SMILES is read from it. * marks the point of attachment. Acetyl(1-DOTA-4-piperidyl) = O=C(O)CN1CCN(CC(=O)O)CCN(CC(=O)N2CCC(CC(=O)*)CC2)CCN(CC(=O)O)CC1; NH(CH2)5NHDOTA = O=C(O)CN1CCN(CC(=O)O)CCN(CC(=O)NCCCCCN*)CCN(CC(=O)O)CC1; Phe(3-Me) = Cc1cccc(C[C@H](N)C(=O)O)c1; Tle = CC(C)(C)[C@H](N)C(=O)O; Aib = CC(C)(N)C(=O)O; Sar = CNCC(=O)O

| molecule | Kd |
| --- | --- |
| CC(=O)N[C@H](C(=O)NC(C)(C)C(=O)N[C@@H](Cc1cccc(C)c1)C(=O)N[C@H]1CSSC[C@@H](C(=O)N[C@H](C(=O)N[C@H](C(N)=O)[C@@H](C)O)C(C)(C)C)NC(=O)[C@H](CC(N)=O)NC(=O)C(C)(C)NC(=O)[C@H](CCCNC(=N)N)NC(=O)[C@H](CCCCN)NC1=O)[C@@H](C)O [PSM-0412] (Ac-T[Aib][Phe(3-Me)]CKR[Aib]NC[Tle]T-NH2; disulfide 4-9) | < 12.6 nM |

I'm curious: which Kd was measured for CC(=O)N[C@H](C(=O)NC(C)(C)C(=O)N[C@@H](Cc1ccccc1)C(=O)N[C@H]1CSSC[C@@H](C(=O)N[C@H](C(=O)N[C@H](C(=O)NCCCCCNC(=O)CN2CCN(CC(=O)O)CCN(CC(=O)O)CCN(CC(=O)O)CC2)[C@@H](C)O)C(C)(C)C)NC(=O)[C@H](CC(N)=O)NC(=O)C(C)(C)NC(=O)[C@H](CCCNC(=N)N)NC(=O)[C@H](CCCCN)NC1=O)[C@@H](C)O [PSM-0391] (Ac-T[Aib]FCKR[Aib]NC[Tle]T-{NH(CH2)5NHDOTA}; disulfide 4-9) tested on Fc-fusion protein of human PSMA (hPSMA-Fc) (Homo sapiens, UniProt Q04609)?
< 12.6 nM

Do the same for CC(=O)N[C@H](C(=O)N(C)CC(=O)N[C@@H](Cc1ccccc1)C(=O)N[C@H]1CSSC[C@@H](C(=O)N[C@H](C(=O)N[C@H](C(N)=O)[C@@H](C)O)C(C)(C)C)NC(=O)[C@H](CC(N)=O)NC(=O)C(C)(C)NC(=O)[C@H](CCCNC(=N)N)NC(=O)[C@H](CCCCN)NC1=O)[C@@H](C)O [PSM-0408] (Ac-T[Sar]FCKR[Aib]NC[Tle]T-NH2; disulfide 4-9) please
126 to 501 nM

Do the same for CC(=O)N[C@H](C(=O)NC(C)(C)C(=O)N[C@@H](Cc1ccccc1)C(=O)N[C@H]1CSSC[C@@H](C(=O)N[C@H](C(=O)N[C@H](C(N)=O)[C@@H](C)O)C(C)(C)C)NC(=O)[C@H](CC(N)=O)NC(=O)[C@H](CCCCNC(=O)CC2CCN(C(=O)CN3CCN(CC(=O)O)CCN(CC(=O)O)CCN(CC(=O)O)CC3)CC2)NC(=O)[C@H](CCCNC(=N)N)NC(=O)[C@H](CCCCN)NC1=O)[C@@H](C)O [PSM-0415] (Ac-T[Aib]FCKRK(Acetyl(1-DOTA-4-piperidyl))NC[Tle]T-NH2; disulfide 4-9) please
12.6 to 126 nM

====

- system: PSMA-expressing C4-2 cells (Homo sapiens)
- Construct: PSMA-expressing C4-2 cells (ATCC, Cat. No. CRL-3314) were cultured in RPMI-1640; host or cells: C4-2 cells
- Sequence (Q04609 whole entry): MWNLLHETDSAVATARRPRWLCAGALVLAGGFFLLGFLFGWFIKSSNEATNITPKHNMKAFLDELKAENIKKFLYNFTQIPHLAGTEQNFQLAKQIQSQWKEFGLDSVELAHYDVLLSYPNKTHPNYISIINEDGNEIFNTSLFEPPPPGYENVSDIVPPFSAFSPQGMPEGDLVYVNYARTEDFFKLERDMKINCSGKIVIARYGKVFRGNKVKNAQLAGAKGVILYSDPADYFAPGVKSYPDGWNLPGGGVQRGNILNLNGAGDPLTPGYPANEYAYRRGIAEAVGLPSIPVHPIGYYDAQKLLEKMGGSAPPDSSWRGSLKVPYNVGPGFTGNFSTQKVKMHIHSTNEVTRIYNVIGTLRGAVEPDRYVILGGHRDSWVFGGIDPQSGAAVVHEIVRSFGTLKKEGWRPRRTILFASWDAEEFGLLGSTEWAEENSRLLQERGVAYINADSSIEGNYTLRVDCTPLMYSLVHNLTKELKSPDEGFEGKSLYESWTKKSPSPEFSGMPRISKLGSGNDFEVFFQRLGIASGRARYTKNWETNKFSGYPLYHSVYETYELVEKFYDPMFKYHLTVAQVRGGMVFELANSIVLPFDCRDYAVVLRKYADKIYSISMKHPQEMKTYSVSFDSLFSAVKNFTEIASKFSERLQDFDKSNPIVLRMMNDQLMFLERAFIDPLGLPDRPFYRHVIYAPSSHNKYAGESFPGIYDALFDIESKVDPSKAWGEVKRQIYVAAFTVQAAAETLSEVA
- protocol.summary: FACS binding assay (competition with 50 nM PSM-0183)
- measurement.conditions: FACS binding, C4-2 cells, category; read-out: pIC50 [C4-2] CAT (converted)
Numbered stars: 1 amine (or outer) side, 2 acyl side, 3 side chain; on linkers, the order of the positions; unused ones are H or OH. Bridge positions count the residues as written; N and C are the ends. Square brackets hold non-standard residues; d marks the D form. Peptide text beside a SMILES is read from it. * marks the point of attachment. TtdsdLys(DOTA)NH2 = NC(=O)[C@@H](CCCCNC(=O)CN1CCN(CC(=O)O)CCN(CC(=O)O)CCN(CC(=O)O)CC1)NC(=O)CCC(=O)NCCCOCCOCCOCCCN*; DOTA = O=C(O)CN1CCN(CC(=O)O)CCN(CC(=O)*)CCN(CC(=O)O)CC1; Phe(4-CH2COOH) = N[C@@H](Cc1ccc(CC(=O)O)cc1)C(=O)O; Phe(4-Cl) = N[C@@H](Cc1ccc(Cl)cc1)C(=O)O; X1 = O=C(CC1CCN([*:1])CC1)[*:2]; Tle = CC(C)(C)[C@H](N)C(=O)O; Nle = CCCC[C@H](N)C(=O)O; Aib = CC(C)(N)C(=O)O; CH2 = C([*:1])[*:2]
# reported IC50; entries follow

Reference set, count: 5
| compound | IC50 |
| --- | --- |
| CCCC[C@H](NC(=O)[C@@H]1CSSC[C@H](NC(=O)[C@H](Cc2ccccc2)NC(=O)[C@H](C)NC(=O)[C@@H](NC(C)=O)[C@@H](C)O)C(=O)N[C@@H](CCCCN)C(=O)N[C@@H](C)C(=O)N[C@@H](C)C(=O)N[C@@H](CC(N)=O)C(=O)N1)C(=O)N[C@H](C(=O)N[C@@H](CC(=O)O)C(N)=O)[C@@H](C)O [PSM-0581] (Ac-TAFCKAANC[Nle]TD-NH2; disulfide 4-9) | 1260 to 3160 nM |
| CC(=O)NC(=N)NCCC[C@@H]1NC(=O)[C@H](CCCCN)NC(=O)[C@@H](NC(=O)[C@H](Cc2ccc(Cl)cc2)NC(=O)C(C)(C)NC(=O)[C@@H](NC(C)=O)[C@@H](C)O)CSSC[C@@H](C(=O)N[C@H](C(=O)N[C@H](C(N)=O)[C@@H](C)O)C(C)(C)C)NC(=O)[C@H](CC(N)=O)NC(=O)C(C)(C)NC1=O [PSM-0569] (Ac-T[Aib][Phe(4-Cl)]CKR(Ac)[Aib]NC[Tle]T-NH2; disulfide 4-9) | < 200 nM |
| CC(=O)N[C@H]1CSSC[C@@H](C(=O)N[C@@H](CC(C)C)C(=O)N[C@H](C(=O)N[C@@H](CC(=O)O)C(=O)NCCCOCCOCCOCCCNC(=O)CCC(=O)N[C@H](CCCCNC(=O)CN2CCN(CC(=O)O)CCN(CC(=O)O)CCN(CC(=O)O)CC2)C(N)=O)[C@@H](C)O)NC(=O)[C@H](CC(N)=O)NC(=O)[C@H](C)NC(=O)[C@H](CCCNC(=N)N)NC(=O)[C@H](CCCCN)NC1=O [PSM-0591] (Ac-CKRANCLTD-{TtdsdLys(DOTA)NH2}; disulfide 1-6) | > 3160 nM |
| CC(=O)N[C@H](C(=O)NC(C)(C)C(=O)N[C@@H](Cc1ccccc1)C(=O)N[C@H]1CSSC[C@@H](C(=O)N[C@H](C(=O)N[C@H](C(N)=O)[C@@H](C)O)C(C)(C)C)NC(=O)[C@H](CCC(=O)O)NC(=O)C(C)(C)NC(=O)[C@H](CCCNC(=N)N)NC(=O)[C@H](CCCCN)NC1=O)[C@@H](C)O [PSM-0563] (Ac-T[Aib]FCKR[Aib]EC[Tle]T-NH2; disulfide 4-9) | < 200 nM |
| CCCC[C@H](NC(=O)[C@@H]1CSSC[C@H](NC(=O)[C@H](Cc2ccccc2)NC(=O)[C@H](C)NC(=O)[C@@H](NC(C)=O)[C@@H](C)O)C(=O)N[C@@H](CCCCN)C(=O)N[C@@H](CCCNC(=N)N)C(=O)NC(C)(C)C(=O)N[C@@H](CC(N)=O)C(=O)N1)C(=O)N[C@H](C(=O)N[C@@H](CC(=O)O)C(N)=O)[C@@H](C)O [PSM-0578] (Ac-TAFCKR[Aib]NC[Nle]TD-NH2; disulfide 4-9) | < 200 nM |

Which IC50 reading was recorded for the compound C[C@@H](O)[C@H](NC(=O)[C@@H](NC(=O)[C@@H]1CSSC[C@H](NC(=O)[C@H](Cc2ccc(CC(=O)O)cc2)NC(=O)C(C)(C)NC(=O)[C@@H](NC(=O)CC2CCN(C(=O)CN3CCN(CC(=O)O)CCN(CC(=O)O)CCN(CC(=O)O)CC3)CC2)[C@@H](C)O)C(=O)N[C@@H](CCCCN)C(=O)N[C@@H](CCCNC(=N)N)C(=O)NC(C)(C)C(=O)N[C@@H](CC(N)=O)C(=O)N1)C(C)(C)C)C(N)=O [PSM-0566] ({DOTA}-[X1]T[Aib][Phe(4-CH2COOH)]CKR[Aib]NC[Tle]T-NH2; disulfide 5-10) ?
> 3160 nM

Do the same for C[C@@H](O)[C@H](NC(=O)[C@@H](NC(=O)[C@@H]1CSSC[C@H](NC(=O)[C@H](Cc2ccccc2)NC(=O)C(C)(C)NC(=O)[C@@H](NC(=O)CN2CCN(CC(=O)O)CCN(CC(=O)O)CCN(CC(=O)O)CC2)[C@@H](C)O)C(=O)N[C@@H](CCCCN)C(=O)N[C@@H](CCCNC(=N)N)C(=O)NC(C)(C)C(=O)N[C@@H](CC(N)=O)C(=O)N1)C(C)(C)C)C(N)=O [PSM-0580] ({DOTA}-T[Aib]FCKR[Aib]NC[Tle]T-NH2; disulfide 4-9) please
< 200 nM

Do the same for CC(=O)N[C@H](C(=O)NC(C)(C)C(=O)N[C@@H](Cc1ccccc1)C(=O)N[C@H]1CSCSC[C@@H](C(=O)N[C@H](C(=O)N[C@H](C(=O)N[C@@H](CC(=O)O)C(N)=O)[C@@H](C)O)C(C)(C)C)NC(=O)[C@H](CC(N)=O)NC(=O)[C@H](C)NC(=O)[C@H](CCCNC(=N)N)NC(=O)[C@H](CCCCN)NC1=O)[C@@H](C)O [PSM-0567] (Ac-T[Aib]FCKRANC[Tle]TD-NH2; linker 4-9 via CH2) please
< 200 nM

Do the same for CC(=O)N[C@H](C(=O)NC(C)(C)C(=O)N[C@@H](Cc1ccccc1)C(=O)N[C@H]1CSSC[C@@H](C(=O)N[C@H](C(=O)N[C@H](C(=O)N[C@@H](CC(=O)O)C(N)=O)[C@@H](C)O)C(C)(C)C)NC(=O)[C@H](CC(N)=O)NC(=O)[C@H](C)NC(=O)[C@H](CCCNC(=N)N)NC(=O)[C@H](CCCCN)NC1=O)[C@@H](C)O [PSM-0565] (Ac-T[Aib]FCKRANC[Tle]TD-NH2; disulfide 4-9) please
< 200 nM
